- target-desc: UniProt:P09917
- Sequence (P09917 whole entry): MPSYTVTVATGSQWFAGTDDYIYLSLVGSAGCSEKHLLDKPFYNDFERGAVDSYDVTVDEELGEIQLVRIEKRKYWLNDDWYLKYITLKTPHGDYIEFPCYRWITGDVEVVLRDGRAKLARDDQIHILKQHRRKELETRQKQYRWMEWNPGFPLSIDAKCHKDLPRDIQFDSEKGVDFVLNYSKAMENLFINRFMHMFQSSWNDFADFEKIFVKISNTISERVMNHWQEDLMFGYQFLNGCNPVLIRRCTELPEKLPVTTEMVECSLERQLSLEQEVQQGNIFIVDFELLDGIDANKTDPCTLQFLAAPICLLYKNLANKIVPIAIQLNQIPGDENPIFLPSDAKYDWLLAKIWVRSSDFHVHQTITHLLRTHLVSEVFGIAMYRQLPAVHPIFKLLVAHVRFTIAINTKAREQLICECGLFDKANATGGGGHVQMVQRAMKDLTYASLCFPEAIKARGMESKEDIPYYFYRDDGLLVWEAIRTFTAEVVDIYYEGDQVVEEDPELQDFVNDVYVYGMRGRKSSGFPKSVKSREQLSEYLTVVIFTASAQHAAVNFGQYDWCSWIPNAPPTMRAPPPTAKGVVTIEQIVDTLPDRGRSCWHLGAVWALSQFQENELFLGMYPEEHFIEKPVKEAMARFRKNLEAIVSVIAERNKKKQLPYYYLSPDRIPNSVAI
- protocol-description: Inhibition of human recombinant 5-LOX expressed in Escherichia coli BL21 assessed as conversion of arachidonic acid to 5-HPETE using arachidonic acid as substrate in presence of ATP by UV-vis spectrophotometry analysis
endpoint-name: IC50
Kindly report the value followed by its unit.

Can you look up the measured IC50 of COc1ccc(C(=O)Nc2nc(C)c(C(=O)/C=C/c3ccc(F)cc3)s2)cc1 for me?
560 nM

Request: Cc1nc(NC(=O)c2ccccc2)sc1C(=O)/C=C/c1cc2c(cc1Br)OCO2
120 nM

Request: COc1cc(/C=C/C(=O)c2sc(NC(=O)c3ccccc3)nc2C)cc(OC)c1OC
70 nM

Request: Cc1nc(NC(=O)c2ccccc2)sc1C(=O)/C=C/c1ccc(F)cc1
140 nM

Request: COc1ccc(C(=O)Nc2nc(C)c(C(=O)/C=C/c3ccc(C)cc3)s2)cc1
80 nM

Request: Cc1ccc(/C=C/C(=O)c2sc(NC(=O)c3ccc(F)cc3)nc2C)cc1
540 nM

Request: Cc1nc(NC(=O)c2ccccc2)sc1C(=O)/C=C/c1ccc(N(C)C)cc1
640 nM

Request: Cc1nc(NC(=O)c2ccccc2)sc1C(=O)/C=C/c1cccc([N+](=O)[O-])c1
240 nM

----------
- target-desc: UniProt:P09917
- protocol-description: Inhibition of human recombinant 5-LOX expressed in Escherichia coli BL21 assessed as conversion of arachidonic acid to 5-HPETE at 10 uM using arachidonic acid as substrate in presence of ATP by UV-vis spectrophotometry analysis relative to control
endpoint-name: inhibition (%)
The answer is to be given in %; state only the numeric part.

Can you look up the measured inhibition of Cc1nc(NC(=O)c2ccccc2)sc1C(=O)/C=C/c1ccc(Cl)cc1 for me?
63.7

Request: Cc1nc(NC(=O)c2ccccc2)sc1C(=O)/C=C/c1cccc(Br)c1
42.5

Request: Cc1ccc(/C=C/C(=O)c2sc(NC(=O)c3ccc(F)cc3)nc2C)cc1
91.5

Request: Cc1nc(NC(=O)c2ccc(F)cc2)sc1C(=O)/C=C/c1ccc(N(C)C)cc1
70.2

Request: Cc1nc(NC(=O)c2ccccc2)sc1C(=O)/C=C/c1cccc([N+](=O)[O-])c1
98

Request: Cc1nc(NC(=O)c2ccccc2)sc1C(=O)/C=C/c1cccs1
71.9

Request: Cc1nc(NC(=O)c2ccccc2)sc1C(=O)/C=C/c1ccc(F)cc1
98

Request: Cc1nc(NC(=O)c2ccccc2)sc1C(=O)/C=C/c1ccccc1
73.5

Request: Cc1nc(NC(=O)c2ccccc2)sc1C(=O)/C=C/c1cc2c(cc1Br)OCO2
100

Request: COc1ccc(/C=C/C(=O)c2sc(NC(=O)c3ccccc3)nc2C)cc1
58.8

Request: Cc1nc(NC(=O)c2ccc(F)cc2)sc1C(=O)/C=C/c1ccco1
65.3

Request: Cc1nc(NC(=O)c2ccc(F)cc2)sc1C(=O)/C=C/c1cccs1
81.7

Request: COc1ccc(C(=O)Nc2nc(C)c(C(=O)/C=C/c3ccc(F)cc3)s2)cc1
88.2

Request: Cc1nc(NC(=O)c2ccc([N+](=O)[O-])cc2)sc1C(=O)/C=C/c1ccc(Cl)cc1
48.8

Request: Cc1nc(NC(=O)c2ccccc2)sc1C(=O)/C=C/c1ccco1
57.2

Request: Cc1nc(NC(=O)c2ccccc2)sc1C(=O)/C=C/c1ccc(N(C)C)cc1
88.2
